System: Mycobacterium tuberculosis Erdman (autoluminescent)
Experiment: total FIC90 (Loewe) at 90% inhibition, three-drug combination (log2); higher = more antagonistic
Conditions: in vitro model: cholesterol 0.05 mM; time point: terminal (~4-5 doublings, model-specific)
Overview of recorded total FIC90 for various compounds
REPORTED_METRIC: total FIC90

• CC(C)/N=c1\cc2n(-c3ccc(Cl)cc3)c3ccccc3nc-2cc1Nc1ccc(Cl)cc1 [clofazimine] + CC(=O)NC[C@H]1CN(c2ccc(N3CCOCC3)c(F)c2)C(=O)O1 [linezolid] + CO[C@H]1/C=C/O[C@@]2(C)Oc3c(C)c(O)c4c(O)c(c(/C=N/N5CCN(C6CCCC6)CC5)c(O)c4c3C2=O)NC(=O)/C(C)=C\C=C\[C@H](C)[C@H](O)[C@@H](C)[C@@H](O)[C@@H](C)[C@H](OC(C)=O)[C@@H]1C [rifapentine] = 0.563
• CC(=O)NC[C@H]1CN(c2ccc(N3CCOCC3)c(F)c2)C(=O)O1 [linezolid] + COc1c(N2C[C@@H]3CCCN[C@@H]3C2)c(F)cc2c(=O)c(C(=O)O)cn(C3CC3)c12 [moxifloxacin] + O=[N+]([O-])c1cn2c(n1)OC[C@@H](OCc1ccc(OC(F)(F)F)cc1)C2 [pretomanid] = 0.307
• COc1nc2ccc(Br)cc2cc1[C@@H](c1ccccc1)[C@@](O)(CCN(C)C)c1cccc2ccccc12 [bedaquiline] + CC(=O)NC[C@H]1CN(c2ccc(N3CCOCC3)c(F)c2)C(=O)O1 [linezolid] + CO[C@H]1/C=C/O[C@@]2(C)Oc3c(C)c(O)c4c(O)c(c(/C=N/N5CCN(C)CC5)c(O)c4c3C2=O)NC(=O)/C(C)=C\C=C\[C@H](C)[C@H](O)[C@@H](C)[C@@H](O)[C@@H](C)[C@H](OC(C)=O)[C@@H]1C [rifampicin] = -0.205
• CC(C)/N=c1\cc2n(-c3ccc(Cl)cc3)c3ccccc3nc-2cc1Nc1ccc(Cl)cc1 [clofazimine] + NNC(=O)c1ccncc1 [isoniazid] + O=[N+]([O-])c1cn2c(n1)OC[C@@H](OCc1ccc(OC(F)(F)F)cc1)C2 [pretomanid] = 0.912
• CC(C)/N=c1\cc2n(-c3ccc(Cl)cc3)c3ccccc3nc-2cc1Nc1ccc(Cl)cc1 [clofazimine] + CC(=O)NC[C@H]1CN(c2ccc(N3CCOCC3)c(F)c2)C(=O)O1 [linezolid] + O=[N+]([O-])c1cn2c(n1)OC[C@@H](OCc1ccc(OC(F)(F)F)cc1)C2 [pretomanid] = 2.05
• CC(=O)NC[C@H]1CN(c2ccc(N3CCOCC3)c(F)c2)C(=O)O1 [linezolid] + COc1c(N2C[C@@H]3CCCN[C@@H]3C2)c(F)cc2c(=O)c(C(=O)O)cn(C3CC3)c12 [moxifloxacin] + CO[C@H]1/C=C/O[C@@]2(C)Oc3c(C)c(O)c4c(O)c(c(/C=N/N5CCN(C6CCCC6)CC5)c(O)c4c3C2=O)NC(=O)/C(C)=C\C=C\[C@H](C)[C@H](O)[C@@H](C)[C@@H](O)[C@@H](C)[C@H](OC(C)=O)[C@@H]1C [rifapentine] = -0.237
• COc1nc2ccc(Br)cc2cc1[C@@H](c1ccccc1)[C@@](O)(CCN(C)C)c1cccc2ccccc12 [bedaquiline] + CC(=O)NC[C@H]1CN(c2ccc(N3CCOCC3)c(F)c2)C(=O)O1 [linezolid] + CO[C@H]1/C=C/O[C@@]2(C)Oc3c(C)c(O)c4c(O)c(c(/C=N/N5CCN(C6CCCC6)CC5)c(O)c4c3C2=O)NC(=O)/C(C)=C\C=C\[C@H](C)[C@H](O)[C@@H](C)[C@@H](O)[C@@H](C)[C@H](OC(C)=O)[C@@H]1C [rifapentine] = 0.0812
• COc1nc2ccc(Br)cc2cc1[C@@H](c1ccccc1)[C@@](O)(CCN(C)C)c1cccc2ccccc12 [bedaquiline] + CC(C)/N=c1\cc2n(-c3ccc(Cl)cc3)c3ccccc3nc-2cc1Nc1ccc(Cl)cc1 [clofazimine] + CO[C@H]1/C=C/O[C@@]2(C)Oc3c(C)c(O)c4c(O)c(c(/C=N/N5CCN(C)CC5)c(O)c4c3C2=O)NC(=O)/C(C)=C\C=C\[C@H](C)[C@H](O)[C@@H](C)[C@@H](O)[C@@H](C)[C@H](OC(C)=O)[C@@H]1C [rifampicin] = -0.861

----------
Tested on: Mycobacterium tuberculosis Erdman (autoluminescent)
Assay: total FIC50 (Loewe) at 50% inhibition, three-drug combination (log2); higher = more antagonistic
Conditions: in vitro model: valerate; time point: terminal (~4-5 doublings, model-specific)
Would you please tag the item condition met when its total FIC50 is 0.1 or above, and condition not met when it is below?

* COc1nc2ccc(Br)cc2cc1[C@@H](c1ccccc1)[C@@](O)(CCN(C)C)c1cccc2ccccc12 [bedaquiline] + CC(C)/N=c1\cc2n(-c3ccc(Cl)cc3)c3ccccc3nc-2cc1Nc1ccc(Cl)cc1 [clofazimine] + CO[C@H]1/C=C/O[C@@]2(C)Oc3c(C)c(O)c4c(O)c(c(/C=N/N5CCN(C)CC5)c(O)c4c3C2=O)NC(=O)/C(C)=C\C=C\[C@H](C)[C@H](O)[C@@H](C)[C@@H](O)[C@@H](C)[C@H](OC(C)=O)[C@@H]1C [rifampicin] | condition met
* CC(C)/N=c1\cc2n(-c3ccc(Cl)cc3)c3ccccc3nc-2cc1Nc1ccc(Cl)cc1 [clofazimine] + NNC(=O)c1ccncc1 [isoniazid] + CC(=O)NC[C@H]1CN(c2ccc(N3CCOCC3)c(F)c2)C(=O)O1 [linezolid] | condition not met
* NC(=O)c1cnccn1 [pyrazinamide] + CO[C@H]1/C=C/O[C@@]2(C)Oc3c(C)c(O)c4c(O)c(c(/C=N/N5CCN(C6CCCC6)CC5)c(O)c4c3C2=O)NC(=O)/C(C)=C\C=C\[C@H](C)[C@H](O)[C@@H](C)[C@@H](O)[C@@H](C)[C@H](OC(C)=O)[C@@H]1C [rifapentine] + CO[C@H]1/C=C/O[C@@]2(C)Oc3c(C)c(O)c4c(O)c(c(/C=N/N5CCN(C)CC5)c(O)c4c3C2=O)NC(=O)/C(C)=C\C=C\[C@H](C)[C@H](O)[C@@H](C)[C@@H](O)[C@@H](C)[C@H](OC(C)=O)[C@@H]1C [rifampicin] | condition met
* NNC(=O)c1ccncc1 [isoniazid] + O=[N+]([O-])c1cn2c(n1)OC[C@@H](OCc1ccc(OC(F)(F)F)cc1)C2 [pretomanid] + CO[C@H]1/C=C/O[C@@]2(C)Oc3c(C)c(O)c4c(O)c(c(/C=N/N5CCN(C)CC5)c(O)c4c3C2=O)NC(=O)/C(C)=C\C=C\[C@H](C)[C@H](O)[C@@H](C)[C@@H](O)[C@@H](C)[C@H](OC(C)=O)[C@@H]1C [rifampicin] | condition met
* CC[C@@H](CO)NCCN[C@@H](CC)CO [ethambutol] + NC(=O)c1cnccn1 [pyrazinamide] + CO[C@H]1/C=C/O[C@@]2(C)Oc3c(C)c(O)c4c(O)c(c(/C=N/N5CCN(C)CC5)c(O)c4c3C2=O)NC(=O)/C(C)=C\C=C\[C@H](C)[C@H](O)[C@@H](C)[C@@H](O)[C@@H](C)[C@H](OC(C)=O)[C@@H]1C [rifampicin] | condition met

----------
System: Mycobacterium tuberculosis Erdman (autoluminescent)
Test: AUC25, normalised area under dose response up to IC25 (three-drug combination) (fraction (0-1)); higher = more potent at low dose
Conditions: in vitro model: butyrate; time point: terminal (~4-5 doublings, model-specific)
REPORTED_METRIC: AUC25

* CC(C)/N=c1\cc2n(-c3ccc(Cl)cc3)c3ccccc3nc-2cc1Nc1ccc(Cl)cc1 [clofazimine] + COc1c(N2C[C@@H]3CCCN[C@@H]3C2)c(F)cc2c(=O)c(C(=O)O)cn(C3CC3)c12 [moxifloxacin] + NC(=O)c1cnccn1 [pyrazinamide] | 0.0926
* CC[C@@H](CO)NCCN[C@@H](CC)CO [ethambutol] + NNC(=O)c1ccncc1 [isoniazid] + CO[C@H]1/C=C/O[C@@]2(C)Oc3c(C)c(O)c4c(O)c(c(/C=N/N5CCN(C6CCCC6)CC5)c(O)c4c3C2=O)NC(=O)/C(C)=C\C=C\[C@H](C)[C@H](O)[C@@H](C)[C@@H](O)[C@@H](C)[C@H](OC(C)=O)[C@@H]1C [rifapentine] | 0.0504
* COc1nc2ccc(Br)cc2cc1[C@@H](c1ccccc1)[C@@](O)(CCN(C)C)c1cccc2ccccc12 [bedaquiline] + COc1c(N2C[C@@H]3CCCN[C@@H]3C2)c(F)cc2c(=O)c(C(=O)O)cn(C3CC3)c12 [moxifloxacin] + CO[C@H]1/C=C/O[C@@]2(C)Oc3c(C)c(O)c4c(O)c(c(/C=N/N5CCN(C)CC5)c(O)c4c3C2=O)NC(=O)/C(C)=C\C=C\[C@H](C)[C@H](O)[C@@H](C)[C@@H](O)[C@@H](C)[C@H](OC(C)=O)[C@@H]1C [rifampicin] | 0.105
* CC(C)/N=c1\cc2n(-c3ccc(Cl)cc3)c3ccccc3nc-2cc1Nc1ccc(Cl)cc1 [clofazimine] + CC[C@@H](CO)NCCN[C@@H](CC)CO [ethambutol] + COc1c(N2C[C@@H]3CCCN[C@@H]3C2)c(F)cc2c(=O)c(C(=O)O)cn(C3CC3)c12 [moxifloxacin] | 0.0834
* CC[C@@H](CO)NCCN[C@@H](CC)CO [ethambutol] + CC(=O)NC[C@H]1CN(c2ccc(N3CCOCC3)c(F)c2)C(=O)O1 [linezolid] + O=[N+]([O-])c1cn2c(n1)OC[C@@H](OCc1ccc(OC(F)(F)F)cc1)C2 [pretomanid] | 0.0626
